- System: RS4;11 cells
- assay.method.text: RS4;11 cell viability, CCK-8 assay
- Assay type: cell-based
- condition.parameters: Homo sapiens, RS4-11, 96 h, CCK-8, 4 days, read-out: RS4, 11 IC50 (Bcl-2 dependent)
reported.metric: pIC50
# pIC50: negative log10 of molar concentration; output just the value

Below: 2 compounds and their reported pIC50.
CN(C)c1ccc(S(=O)(=O)NC(=O)c2ccc(N3CCN(CC4=C(c5ccc(Cl)cc5)CC5(CCC5)CC4)CC3)cc2Oc2cnc3[nH]ccc3c2)cc1[N+](=O)[O-] [compound 11]
7.21
O=C(NS(=O)(=O)c1ccc(NCC2CCOCC2)c([N+](=O)[O-])c1)c1ncc(N2CCN(CC3=C(c4ccc(Cl)cc4)CC4(CCC4)CC3)CC2)cc1Oc1cnc2[nH]ccc2c1 [compound 30]
7.72

We next turn to a different compound, shown below.
Req: Value lookup for pIC50; key = O=C(NS(=O)(=O)c1cc(F)c(NCC2CCOCC2)c([N+](=O)[O-])c1)c1ccc(N2CCN(CC3=C(c4ccc(Cl)cc4)CC4(CCC4)CC3)CC2)cc1Oc1cnc2[nH]ccc2c1 [compound 29]
Resp: 7.92

###

- assay.method.text: Pharmacokinetics in rats
- Assay type: in vivo
- condition.parameters: rat, in vivo, IV 2 mg/kg, read-out: Cmax IV
// Cmax lookup, one value per entry
Give the value, in units of ng/mL, as a plain number.

Below: 2 compounds and their reported Cmax.
CC1(C)CCC(CN2CCN(c3ccc(C(=O)NS(=O)(=O)c4ccc(NCC5CCOCC5)c([N+](=O)[O-])c4)c(Oc4cnc5[nH]ccc5c4)c3)CC2)=C(c2ccc(Cl)cc2)C1 [ABT-199, Venetoclax, reference compound]
8740
O=C(NS(=O)(=O)c1ccc(NC[C@H]2COCCO2)c([N+](=O)[O-])c1)c1ccc(N2CCN(CC3=C(c4ccc(Cl)cc4)CC4(CCC4)CC3)CC2)cc1Oc1cnc2[nH]ccc2c1
4170

We next turn to a different compound, shown below.
Req: Value lookup for Cmax; key = O=C(NS(=O)(=O)c1ccc(NCC2CCOCC2)c([N+](=O)[O-])c1)c1ccc(N2CCN(CC3=C(c4ccc(Cl)cc4)CC4(CCC4)CC3)CC2)cc1Oc1cnc2[nH]ccc2c1
Resp: 4200

###

// IC50 lookup, one value per entry
- Tested on: MV4;11 cell line
- assay.method.text: MV4;11 inhibition
- Type: cell-based
Give the value, in units of µM, as a plain number.

O=C(NS(=O)(=O)c1ccc(NC[C@H]2COCCO2)c([N+](=O)[O-])c1)c1cc(F)c(N2CCN(CC3=C(c4ccc(Cl)cc4)CC4(CCC4)CC3)CC2)cc1Oc1cnc2[nH]ccc2c1 [compound 26]
6.71

We next turn to a different compound, shown below.
Req: Value lookup for IC50; key = O=C(NS(=O)(=O)c1ccc(NC[C@H]2COCCO2)c([N+](=O)[O-])c1)c1cc(F)c(N2CCN(CC3=C(c4ccc(Cl)cc4)CC4(CCC4)CC3)CC2)cc1Oc1cnc2[nH]ccc2c1 [compound 39]
Resp: 0.0337

###

- System: RS4;11 cells
- assay.method.text: RS4;11 cell viability, CCK-8 assay
- Type: cell-based
- condition.parameters: Homo sapiens, RS4-11, 96 h, CCK-8, 4 days, read-out: RS4, 11 IC50 (Bcl-2 dependent)
reported.metric: pIC50
# pIC50: negative log10 of molar concentration; output just the value

O=C(NS(=O)(=O)c1ccc(NC[C@H]2COCCO2)c([N+](=O)[O-])c1)c1ccc(N2CCN(CC3=C(c4ccc(Cl)cc4)CC4(CCC4)CC3)CC2)cc1Oc1cnc2[nH]ccc2c1 [Cpd. No. 6]
8.26

Req: Value lookup for pIC50; key = O=C(NS(=O)(=O)c1cc([N+](=O)[O-])c2c(cnn2CC2CCOCC2)c1)c1ccc(N2CCN(CC3=C(c4ccc(Cl)cc4)CC4(CCC4)CC3)CC2)cc1Oc1cnc2[nH]ccc2c1 [compound 60]
Resp: 6.60

These measurements were taken from patent US10221174B2.
